IC50 listing for selected compounds.
test system: hyaluronan export from chondrosarcoma cells; assay: Inhibition of hyaluronan export / production in chondrosarcoma cells; type: cell-based
State the answer as a number, implicitly in µM.

> print(dat)
                                   compound  endpoint  units  reportedvalue
1  COc1cc(O)c(CC=C(C)C)c(O)c1C(=O)/C=C/c1ccc(OC(=O)CN(C=O)/C=C\SC(C)=O)cc1      IC50     µM             20
2  COc1cc(O)c(CC=C(C)C)c(O)c1C(=O)/C=C/c1ccc(O)cc1 [Xanthohumol, reference compound]      IC50     µM             19
3  O=c1c(O)c(-c2ccc(O)c(O)c2)oc2cc(O)cc(O)c12 [Quercetin, reference compound]      IC50     µM             16
4  COc1cc(O)c(CC=C(C)C)c(O)c1C(=O)/C=C/c1ccc(OC(=O)C[N+](C)(C)C)cc1.[Cl-]      IC50     µM             18

Read the next record carefully.
Report IC50 from hyaluronan export from chondrosarcoma cells testing of `CC(=O)S/C=C\N(C=O)CC(=O)Oc1ccc(-c2oc3cc(O)cc(O)c3c(=O)c2O)cc1O`
8

---

pIC50 listing for selected compounds.
test system: fibroblasts; assay: Alamar blue staining of fibroblasts; assay type: cell-based; conditions: Fibroblast
// returns pIC50 (minus log10 of molar concentration), number only

> print(dat)
                                   compound  reportedvalue
1  COc1cc(O)c(CC=C(C)C)c(O)c1C(=O)/C=C/c1ccc(O)cc1 [Xanthohumol, reference compound]           4.26
2  COc1cc(O)c(CC=C(C)C)c(O)c1C(=O)/C=C/c1ccc(OC(=O)C[N+](C)(C)C)cc1.[Cl-]           4.10
3  COc1cc(O)c(CC=C(C)C)c(O)c1C(=O)/C=C/c1ccc(OC(=O)CN(C=O)/C=C\SC(C)=O)cc1           4.13

Read the next record carefully.
Determine its reported pIC50: `CC(=O)S/C=C\N(C=O)CC(=O)Oc1ccc(-c2oc3cc(O)cc(O)c3c(=O)c2O)cc1O`
4.18
